Tested on: Leishmania major
procedure summary: Antileishmanial activity against Leishmania major amastigotes assessed as reduction in parasite growth incubated for 72 hrs by MTT assay
Format: functional, organism-based
measurement name: IC50 (µg/mL)
Entry rule: numbers only, all in µg/mL.

{"chemical smiles": "COc1c2c(cc3c1-c1ccc(OC)c(=O)cc1[C@@H](NC(C)=O)CC3)OCO2", "IC50 (µg/mL)": 8.7}
{"chemical smiles": "COc1cc2c(c(OC)c1OC)-c1ccc(OC)c(=O)cc1[C@@H](NC=O)CC2", "IC50 (µg/mL)": 10.2}

Fill in the blank: the reported IC50 of COc1c(O[C@@H]2O[C@H](CO)[C@@H](O)[C@H](O)[C@H]2O)cc2c(c1OC)-c1ccc(OC)c(=O)cc1[C@@H](NC(C)=O)CC2 is ____.
4

====

Test system: Leishmania major
procedure summary: Antileishmanial activity against Leishmania major promastigotes incubated for 24 hrs measured by alamar blue staining based fluorescence analysis
Assay type: functional, organism-based
measurement name: EC50 (µM)
Entry rule: numbers only, all in µM.

Fill in the blank: the reported EC50 of CCOC(=O)C1=C(C)NC(C)=C(C(=O)OCC)C1c1cccc(Cl)c1 is ____.
15.5
